Entry source: paper PMC5540273

Test system: MAK
Conditions: concentration: 1 μM, replicates: in singlicate; n = 1;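 also: KINOMEscan kinase panel screen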
quantity name: %Inh

Example entries and their recorded answers appear below.
molecule	%Inh
NCCNS(=O)(=O)c1ccc(-c2ccnc3[nH]ccc23)cc1 [GSK977617]	0%
Cn1ccc2ncnc(Oc3ccc(NC(=O)Nc4ccncc4)c(Cl)c3)c21	10%
O=C(c1ccc(-c2cc(-c3c[nH]nc3-c3ccccn3)ccn2)cc1)N1CCOCC1 [GW812171]	0%
C[C@@H](Oc1cc(-n2cnc3ccc(NC(=O)NC(C)(C)C)cc32)sc1C(N)=O)c1ccccc1Cl [GSK346294]	0%
Cc1ccc(NC(=O)c2ccnc(N3CCN(C)CC3)c2)cc1-c1ccc(C(=O)NCC2CC2)cc1 [GW775604]	0%
CCn1cnc2c(N)ncnc21 [GW345098]	0%
NS(=O)(=O)CCc1cccc(Nc2nccc(-c3c(-c4cccc(NC(=O)c5c(F)cccc5F)c4)nn4ccccc34)n2)c1 [GSK336735]	22%
O=c1cc(N2CCOCC2)nc2n(Cc3cccc4ccccc34)ccn12 [GSK2333389]	0%

Now consider a different molecule.
Problem: Need %Inh of `CCc1ccnc(/C=C/c2n[nH]c3cc(Sc4ccccc4C(=O)NC)ccc23)c1` , thanks.
Solution: 20%

====

Please respond with reported %Inh for every item in the list.
Tested on: CIT
Conditions: concentration: 1 μM, replicates: in singlicate; n = 1
Answers are plain numbers, in %.

Answered examples (3):
molecule	readout unit	result value
CN1c2ccc(CNc3ccc(F)cc3)cc2-c2c(cnn2C)S1(=O)=O	%	1
O=C(Nc1cccc(-c2nn3ncccc3c2-c2ccnc(Nc3cccc(C(F)(F)F)c3)n2)c1)c1c(F)cccc1F [GSK299495]	%	0
CCc1nc(-c2cccc(C)c2)c(-c2ccnc(NCc3ccccc3)c2)s1	%	29

Switching to the query record.
Problem: # lookup: %Inh of `CCc1ccnc(/C=C/c2n[nH]c3cc(Sc4ccccc4C(=O)NC)ccc23)c1`
Solution: 0

====

System: WNK1
Settings: concentration: 1 μM, replicates: in singlicate; n = 1
For each entry below, report its %Inh value.
Give bare numbers, in %.

smiles representation	readout unit	%Inh
COc1cc2c(cc1OCCN1CCN(C)CC1)ncc1c3ccc(C#N)cc3[nH]c21	%	0
O=C(NCCNc1ccnc(Nc2ccc(F)cc2)n1)Nc1ccccc1F	%	0
Nc1nccc(-c2c(-c3ccc(F)cc3)ncn2C2CCN(CC(F)(F)F)CC2)n1	%	0

Please state %Inh for every molecule in the list that follows.
1. O=C(NOCC1CC1)c1ccc(F)c(F)c1Nc1ccc(I)cc1Cl
2. CSc1ccc(-c2cc3ncnc(SCC(=O)O)c3s2)cc1

Solution:
1. 0
2. 0

====

Tested on: ZAK
Conditions: concentration: 1 μM, replicates: in singlicate; n = 1
Assign %Inh to each entry below.
Answers are plain numbers, in %.

Consider the following illustrative entries.
compound	result value
Fc1ccc(-c2nn3c(OCC(F)(F)F)cccc3c2-c2ccncc2)cc1	17
CN1c2ccc(CNc3ccc(F)cc3)cc2-c2c(cnn2C)S1(=O)=O	0
NS(=O)(=O)c1cccc(-c2ccc3nccc(-c4cccc(S(N)(=O)=O)c4)c3c2)c1	2
Cc1c(Cn2c(C)nn3c(=O)cc(N4CCOC(C)C4)nc23)cccc1C(F)(F)F (stereo not drawn)	0
c1ccc(-c2n[nH]cc2-c2ccnc3ccccc23)nc1	28
NS(=O)(=O)c1cccc(-c2ccc3ncc(N4CCOCC4)nc3c2)c1	3
O=C1Cc2cc(Nc3nc(NCc4cccc(S(=O)(=O)C(F)(F)F)c4)ncc3C(F)(F)F)ccc2N1	1
Fc1ccc(-c2ncn(CCCN3CCOCC3)c2-c2ccccn2)cc1	0

We next turn to a different compound, shown below.
Problem: Name the recorded %Inh for COc1ccc(Nc2nccc(N3CCC(NC(=O)Nc4cccc(C(C)=O)c4)C3)n2)cc1 (stereo not drawn) .
Solution: 0

====

System: PRKCQ
Details: concentration: 1 μM, replicates: in singlicate; n = 1
quantity name: %Inh (%)
One number for each entry, in %.

Known results for molecules:
smiles representation	result value
c1ccc(-c2cc(-c3c[nH]nc3-c3ccccn3)ccn2)cc1	0
Cl.Nc1ncnc2occ(-c3ccc(NC(=O)Nc4cc(C(F)(F)F)ccc4F)cc3)c12	15
Fc1ccc(-c2ncn(CCCN3CCOCC3)c2-c2ccccn2)cc1	0

Now look at this one.
Problem: # query: %Inh of entry `C[C@@H](Oc1cc(-n2cnc3ccc(NC(=O)NC(C)(C)C)cc32)sc1C(N)=O)c1ccccc1Cl`
Solution: 15

====

Exercise: state measured %Inh for each of the compounds provided.
System: YSK1
Construct: gene STK25
Details: concentration: 1 μM, replicates: in singlicate; n = 1
Answers are plain numbers, in %.

compound	target entity	readout unit	%Inh
O=C(c1ccc(-c2cc(-c3c[nH]nc3-c3ccccn3)ccn2)cc1)N1CCOCC1	YSK1	%	0
O=C1NC(=O)C(N2CCc3ccccc32)=C1c1cccc(Cl)c1	YSK1	%	0
N#Cc1ccc(-c2cc(-c3c[nH]nc3-c3ccccn3)ccn2)cc1	YSK1	%	0
Cc1cccc(-c2nc(-c3ccc(S(C)(=O)=O)cc3)sc2-c2ccncc2)c1	YSK1	%	18

Provide the reported %Inh of each entry below, same order.
1. COc1ccc(CNC(=O)NC2CCN(c3ccnc(Nc4ccc(OC)cc4)n3)C2)cc1 (centres unmarked)
2. Nc1nccc(-c2c(-c3ccc(F)cc3)ncn2C2CCN(CC(F)(F)F)CC2)n1
3. COc1cc(Nc2nccc(N3CCC(NC(=O)c4cccc(NC(C)=O)c4)C3)n2)cc(OC)c1OC (centres unmarked)
4. NS(=O)(=O)CCc1cccc(Nc2nccc(-c3c(-c4cccc(NC(=O)c5c(F)cccc5F)c4)nn4ccccc34)n2)c1

Solution:
[0, 0, 3, 24]

====

Consider the following compounds; for each one, report its %Inh.
System: ARK5
Construct: gene NUAK1
Conditions: concentration: 1 μM, replicates: in singlicate; n = 1
Answers are plain numbers, in %.

compound	%Inh [%]
CN1c2ccc(NCc3ccc(F)cc3)cc2-c2c(cnn2C)S1(=O)=O	0

Provide the reported %Inh of each entry below, same order.
1. O=C(c1ccc(-c2cc(-c3c[nH]nc3-c3ccccn3)ccn2)cc1)N1CCOCC1
2. Cc1ccc(C(=O)NCC(N)=O)cc1-n1c(C)cc(OCc2ccc(F)cc2F)c(Br)c1=O
3. O=C(NCCNc1ccnc(Nc2ccc(F)cc2)n1)c1cc2ccccc2s1
4. Cc1cccc(Cn2ccn3c(=O)cc(N4CCOCC4)nc23)c1
5. Cl.Oc1cccc(Nc2ccnc3cc(-c4ccncc4)ccc23)c1
6. CCc1nc(-c2cccc(C)c2)c(-c2ccnc(NCc3ccccc3)c2)s1
7. Cc1cn2c(=O)cc(N3CCOCC3)nc2n1Cc1cccc(Cl)c1Cl
8. c1ccc(-c2cc(-c3c[nH]nc3-c3ccccn3)ccn2)cc1

Solution:
[0, 0, 0, 12, 9, 15, 14, 0]

Provide each entry's %Inh from the list below.
1. O=C(NCCCN1CCOCC1)c1cccc(Nc2nccc(Nc3ccc(Oc4ccccc4)cc3)n2)c1
2. Nc1nc(-c2ccc3c(N)n[nH]c3c2)cc(N2CCCC2)n1
3. NS(=O)(=O)c1cccc(-c2ccc3ncc(N4CCOCC4)nc3c2)c1
4. O=C1NC(=O)C(N2CCc3ccccc32)=C1c1cccc(Cl)c1
5. CSc1ccc(-c2cc3ncnc(SCC(=O)O)c3s2)cc1
6. NS(=O)(=O)c1cccc(-c2ccc3nccc(-c4cccc(S(N)(=O)=O)c4)c3c2)c1
7. CCn1cnc2c(N)ncnc21

Solution:
[29, 17, 0, 10, 0, 0, 0]

====

Tested on: CDK4
Conditions: concentration: 1 μM, replicates: in singlicate; n = 1
quantity name: %Inh (%)
One number for each entry, in %.

Answered cases to consult:
compound	quantity name	result value
CCc1nc(-c2cccc(C)c2)c(-c2ccnc(NCc3ccccc3)c2)s1	%Inh	0
COCCNC(=O)c1ccc(-c2cc(C(=O)NC3CC3)cc(F)c2C)cc1 [GW868318]	%Inh	21
N#Cc1c(N2CCOCC2)sc(-c2ccn[nH]2)c1-c1ccc(Cl)cc1	%Inh	29
COc1ccc(CNC(=O)NC2CCN(c3ccnc(Nc4ccc(OC)cc4)n3)C2)cc1 (centres unmarked) [GSK1379727]	%Inh	48

Now look at this one.
Problem: Bench note: what %Inh did NS(=O)(=O)c1cccc(-c2ccc3ncc(N4CCOCC4)nc3c2)c1 [GSK1535721] show?
Solution: 12

====

Could you please report measured %Inh for the items listed next?
Test system: PFTAIRE2
Conditions: concentration: 1 μM, replicates: in singlicate; n = 1
Numbers only, in %.

molecule	target entity	readout unit	%Inh
CCc1ccnc(/C=C/c2n[nH]c3cc(Sc4ccccc4C(=O)NC)ccc23)c1	PFTAIRE2	%	0
NS(=O)(=O)CCc1cccc(Nc2nccc(-c3c(-c4cccc(NC(=O)c5c(F)cccc5F)c4)nn4ccccc34)n2)c1 [GSK336735]	PFTAIRE2	%	25
Cl.Oc1cccc(Nc2ccnc3cc(-c4ccncc4)ccc23)c1 [GW494601]	PFTAIRE2	%	2

Problem: Query: %Inh; subject: Cc1ccc(NC(=O)c2ccnc(N3CCN(C)CC3)c2)cc1-c1ccc(C(=O)NCC2CC2)cc1 [GW775604]
Solution: 1
